tested on: RT Y181C mutant A17 strain; test: microbe, parasite or virus in culture; assay type: cell-based, HIV-1; conditions: Human immunodeficiency virus 1, PBMC, 168 h, read-out: IC50 A17
Entries and their IC50
ASSAY READOUT: IC50

FC(F)(F)c1ccc(NC(=S)NCCC2=CCCCC2)nc1 :: 300 nM
S=C(NCCC1=CCCCC1)Nc1ccc(Cl)cn1 :: 68 nM
Cc1ccnc2c1NC(=O)c1cccnc1N2C1CC1 [Nevirapine, reference compound] :: > 100000 nM
CC(C)Nc1cccnc1N1CCN(C(=O)c2cc3cc(NS(C)(=O)=O)ccc3[nH]2)CC1 [Delavirdine, reference compound] :: 50000 nM
